target: T1, ZIKV VLP (zika virus like particle, isolate Z1106033) (Zika virus isolate Z1106033 (Suriname, …, UniProt A0A024B7W1 123-794))
T1 construct: also called zika VLP; ZIKV VLPs
Outcome: Fulfilled for EC25 of at least 5 ng/mL; Not fulfilled for anything lower.

# check: EC25 of Anti-ZIKV #6 (IgG2c kappa, Clone ZV-67) (antibody, V domains shown) VH: QAQLQQSGTGLARPGASVKLSCKASGYTFTSYGISWVTQRAGQGLEWIGVIYPRSGNTYYNEKFRGKATLTADKSSSSAYMELRGLTAEDSAVYFCARENYGSVYWGQGTTLTVSS VL: DIVMTQSQKFMSTSVGDRVSITCKASQNVGTAVAWYQQKPGQSPKLLIYSASNRYTGVPDRFTGSGSGTDFTLTISNMQSEDLADYFCQQFSSYPYTFGGGTKLEIK is greater than or equal to 5 ng/mL
Fulfilled

Does the reported EC25 for Anti-ZIKV #7 (IgG2a kappa, Clone ZKA-64) (antibody, V domains shown) VH: QVQLVQSGAEVKKPGASVKVSCKASGYTFTGYHIDWVRQARGQGLEWMGRINPNSGGTNYAQKFQGRVTMTRDTSISTAYMQLSRLRSDDSAVYYCARMSSSIWGFDHWGQGTLVTVSS VL: EIVMTQSPATLSVSPGERATLSCRASQSVLINLAWYQQKPGQAPRLLIYGASSRATGIPARFSGSGSGTEFTLTISSLQSEDFAVYYCQQYNDWPPITFGQGTRLEIK fall at or above the 5 ng/mL mark?
Fulfilled

Does the binder Anti-ZIKV #11 (Clone 11-3) (antibody, V domains shown) VH: QEQLVESGGGLVQPEGSLTITCTGSGFSFSSRFYMCWVRQAPGKGLEWIACIYGGSSGSTYYASWAKGRFTISKTSSTTVTLQISSLTAADTATYFCARGGSTAAAGFNLWGPGTLLTVSS VL: DVVMTQTPASVSATVGGTVTIKCQASEDIYNLLAWYQQKPGQPPKLLIYYASTLASGVPSRFKGSGSGTEFTLTISDLECADAATYYCQCNDYGGTYVPNAFGGGTEVVVKG have recorded EC25 that is 5 ng/mL or more?
Not fulfilled

Decide: is the reported value of EC25 for Anti-ZIKV #5 (Clone 306-2) (antibody, V domains shown) VH: QSLEESGGDLVKPGASLTLTCTASGFDFSDRYYMCWVRQAPGKGLEWIGCIYVGSGDTYYASWAKGRFTISRTSSTTVTLQMTRLTAADTATYFCARHPGTYFTLWGPGTLVTVSS VL: DVVMTQTPSSVSAAVGGTVTINCQASQNIVNNLAWYQQRPGQPPKLLIYDTSTLASGVPSRFKGSGSGTEFTLTISDLECADAATYYCQTYYYYNKIINGFGGGTEVVVKG equal to or greater than 5 ng/mL?
Not fulfilled

Has Anti-ZIKV #3 (Clone 270-12) (antibody, V domains shown) VH: QAQLEESGGDLVKPEGSLTLTCTASGFSFTDRHYMCWVRQAPGKGLEWIACVYPGSSGSTYYASWARGRFTISKTSSTTVTLRMTSLTAADTATYFCARSSYPDSSGYSYGMDLWGPGTLVTVSS VL: DIVMTQTPASVEAAVGGTVTIKCQASQDINSNLAWYQQKPGQRPKFLMYLTSKLASGVPSRFRGSGSGTQFTLTISDLECADAATYYCQTYYDISNYGYAFGGGTEVVVKG a recorded EC25 greater than or equal to 5 ng/mL?
Not fulfilled

Could you verify whether the entry Anti-ZIKV #2 (Clone 242-3) (antibody, V domains shown) VH: QAQLEESGGDLVKPEGSLTLTCTASGFSFTDRHYMCWIRQAPGKGLEWIACVYPGSSGSTYYASWARGRFTISKTSSTTVTLRMTSLTAADTATYFCARSSYPDSSGYSYGMDLWGPGTLVTVSS VL: DIVMTQTPASVEAAVGGTVTIKCQASQNINSNLAWYQQKPGQRPKFLMYLTSKLASGVPSRFRGSGSGTQFTLTISDLECADAATYYCQTYYDISNYGYAFGGGTEVVVKG shows EC25 of no less than 5 ng/mL?
Not fulfilled

Data credit: patent US20230324404A1
